Tested on: PC-3 prostate
Assay: NCI tumour cell line growth inhibition, 48 h; in the data active means GI50 below about 0.43 µM; inactive means the rest
Select the matching outcome among active, inactive

Some solved entries appear below for comparison.
[[record]]
compound = "COc1ccc(-c2nsc3c2NC(=O)CC3c2ccc3c(c2)OCO3)cc1 (stereo unspecified)"
target = "PC-3 prostate"
group_label = "inactive"

[[record]]
compound = "OCc1cccc(-c2ccc3ncc(-c4nc(NC5CC5)ncc4F)n3c2)c1"
target = "PC-3 prostate"
group_label = "active"

[[record]]
compound = "Cc1nc2cncc(C#Cc3cncc(C(=O)Nc4ccc(CN5CCN(C)CC5)c(C(F)(F)F)c4)c3)c2nc1C"
target = "PC-3 prostate"
group_label = "inactive"

[[record]]
compound = "CN(C)c1ccc(C(=O)c2ccc(N(C)C)c(N)c2)cc1N"
target = "PC-3 prostate"
group_label = "inactive"


Exercise: Hi, do you know how CC(=N\O)/C(C)=N/O.CC(=N\O)/C(C)=N/O.CC(=N\O)/C(C)=N/O.CC(=N\O)/C(C)=N/O.[Cu].[Cu] came out in this test?
Key: inactive

Exercise: Record lookup: outcome of this test for c1cc(C2CCCCC2)ccc1OCCCCCCN1CCNCC1 ?
Key: inactive
